Let's go through some IC50 measurements on EGFR (UniProt P00533) together.
Sequence (P00533 whole entry, looked up): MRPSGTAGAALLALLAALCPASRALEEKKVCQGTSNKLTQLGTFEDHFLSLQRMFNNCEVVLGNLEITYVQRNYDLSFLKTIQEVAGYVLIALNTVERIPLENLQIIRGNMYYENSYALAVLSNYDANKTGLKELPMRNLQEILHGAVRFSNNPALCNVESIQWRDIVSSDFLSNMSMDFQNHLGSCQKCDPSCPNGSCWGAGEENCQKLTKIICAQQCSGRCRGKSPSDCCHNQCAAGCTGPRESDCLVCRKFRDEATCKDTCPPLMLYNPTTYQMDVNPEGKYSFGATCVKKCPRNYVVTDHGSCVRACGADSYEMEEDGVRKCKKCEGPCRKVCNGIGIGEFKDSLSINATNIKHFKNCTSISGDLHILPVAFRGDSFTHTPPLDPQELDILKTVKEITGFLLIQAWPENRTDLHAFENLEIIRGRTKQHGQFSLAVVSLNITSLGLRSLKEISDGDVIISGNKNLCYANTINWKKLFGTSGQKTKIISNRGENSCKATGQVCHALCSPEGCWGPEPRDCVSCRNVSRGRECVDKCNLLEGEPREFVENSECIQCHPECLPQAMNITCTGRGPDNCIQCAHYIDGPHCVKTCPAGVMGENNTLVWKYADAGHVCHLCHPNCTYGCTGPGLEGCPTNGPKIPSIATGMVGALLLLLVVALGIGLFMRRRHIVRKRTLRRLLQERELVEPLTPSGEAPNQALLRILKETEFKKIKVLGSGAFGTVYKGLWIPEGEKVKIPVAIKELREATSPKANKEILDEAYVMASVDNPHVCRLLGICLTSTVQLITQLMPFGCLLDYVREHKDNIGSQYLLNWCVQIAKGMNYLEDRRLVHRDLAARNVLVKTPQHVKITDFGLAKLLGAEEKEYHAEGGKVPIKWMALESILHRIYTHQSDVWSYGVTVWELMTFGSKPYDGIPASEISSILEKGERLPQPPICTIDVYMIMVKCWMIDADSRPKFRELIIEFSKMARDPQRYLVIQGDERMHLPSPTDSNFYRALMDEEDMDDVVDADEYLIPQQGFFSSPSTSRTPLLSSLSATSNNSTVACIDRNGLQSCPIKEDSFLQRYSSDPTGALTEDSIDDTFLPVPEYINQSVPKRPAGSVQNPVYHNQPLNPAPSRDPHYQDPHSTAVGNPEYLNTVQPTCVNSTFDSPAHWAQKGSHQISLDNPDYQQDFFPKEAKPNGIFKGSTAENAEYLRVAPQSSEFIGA

Examples with answers:
compound: COc1cc(Nc2ncnc(Nc3ccc(N)cc3)n2)cc(OC)c1OC
observed property: IC50
readout value: 0.4 to 2.4 µg/mL
//
compound: COc1ccc(Nc2ncnc(NCCCN3CCCCC3C)n2)cc1OC (stereo unspecified)
observed property: IC50
readout value: > 4.5 µg/mL

Under EGFR (UniProt P00533): IC50 value of COc1cc(Nc2ncnc(-n3c(N)nc4ccccc43)n2)ccc1OCCN1CCOCC1 ? > 4.5 µg/mL

Form field: IC50 recorded for COc1cc(Nc2ncnc(Nc3ccc4ccccc4c3)n2)cc(OC)c1OC with EGFR (UniProt P00533) (enter value) 0.4 to 2.4 µg/mL

Kindly state the measured IC50 obtained for CN(c1cccc(Cl)c1)c1ncnc(Nc2cc(C(C)(C)C)on2)n1 with EGFR (UniProt P00533). > 4.5 µg/mL

Requested read-out IC50, target or system EGFR (UniProt P00533), entry CC(C)(C)c1ccc(Nc2ncnc(-n3c(N)nc4ccccc43)n2)cc1 > 4.5 µg/mL

What reported IC50 corresponds to CC(=O)NS(=O)(=O)c1ccc(Nc2ncnc(N(C)c3cccc(Cl)c3)n2)cc1 on EGFR (UniProt P00533)? < 0.4 µg/mL

IC50 of COc1cc(Nc2ncnc(-n3c(NCc4cccc([N+](=O)[O-])c4)nc4ccccc43)n2)cc(OC)c1OC on EGFR (UniProt P00533)? > 4.5 µg/mL

Provide value of IC50 for this record tested with EGFR (UniProt P00533): CN(c1cccc(Cl)c1)c1ncnc(N[C@@H]2CCN(Cc3ccccc3)C2)n1 > 4.5 µg/mL

Param readout= IC50; system= EGFR (UniProt P00533); entry= COc1ccc(Nc2ncccc2-c2ncnc(Nc3cc(OC)c(OC)c(OC)c3)n2)c(C)c1 ; returns value. > 4.5 µg/mL
